# cell count per entry
- assay_summary: inhibitors of TNFa-induced NFkB p65 translocation, primary screen, imaging, HUVEC, MLSMR starter and 10KST1 sets (AID 438);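 also: compound added about 3h40 before a 20 min TNFalpha stimulation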
- particulars: HUVEC TNFa-induced p65 nuclear translocation; measured here: nuclei count (cytotoxicity indicator), at 2.08 µM
Note: the reply should be a number with no unit written.

# input Sample COc1cc(/C=C/C(=O)CC(=O)/C=C/c2ccc(O)c(OC)c2)ccc1O — what was its cell count?
# output 581

# input Sample Cc1nc2c(c(=O)n1CC1CCCO1)c1nc3ccccc3nc1n2Cc1ccc2c(c1)OCO2 (stereo not drawn) — what was its cell count?
# output 281

# input Sample Nc1nnc(CSc2ccc(Cl)cc2)s1 — what was its cell count?
# output 605

# input Sample CCOC(=O)c1c(C)n(C)c2ccc(OC)c(NC(=O)CCN3CCSCC3)c12 — what was its cell count?
# output 476

# input Sample Cc1c(Cl)cccc1Nc1ccccc1C(=O)O — what was its cell count?
# output 612

# input Sample CCOC(=O)c1c(CN2CCCCC2)oc2ccc(OC)cc12 — what was its cell count?
# output 344

# input Sample COc1ccc(N/C=C(\C#N)c2nc3ccccc3n2C)c(OC)c1 — what was its cell count?
# output 367

# input Sample c1ccc2c(NCC3CCCO3)nc(-c3ccncc3)nc2c1 (stereo not drawn) — what was its cell count?
# output 296

# input Sample C[C@]12CCC(=O)C=C1CC[C@@H]1[C@@H]2C(=O)C[C@@]2(C)[C@H]1CC[C@]2(O)C(=O)CO — what was its cell count?
# output 603

# input Sample CCCC(=O)N1c2ccccc2NC2=C(C(=O)CCC2)C1c1ccc(F)cc1 (stereo not drawn) — what was its cell count?
# output 593

---

- assay_summary: DUSP6 inhibitors restoring Erk phosphorylation by chemical complementation, primary imaging in DUSP6-transfected HeLa (AID 609)
- particulars: HeLa MKP-3 transfected, phospho-Erk imaging KS statistic; measured here: nuclear pErk red intensity z-score; at 10 µM; stronger effect = higher value; cells stimulated with TPA for 15 min
# z-score per entry

Sample answers from the record:
compound | z-score
COC(=O)c1cc(Br)c(=O)n(-c2nccs2)c1 | -2.4
Cc1oc2cc(O)ccc2c(=O)c1-c1cnn(-c2ccccc2)c1 | 0.86
Cc1ccc(C#N)c(SCc2cc3c(cc2Cl)OCO3)n1 | -0.243

# input Sample Cc1cc(=O)oc(C)c1C(=O)N1CCN(C)CC1 — what was its z-score?
# output 0.815

# input Sample Nc1nc(F)nc2c1ncn2[C@@H]1O[C@H](CO)[C@@H](O)[C@@H]1O — what was its z-score?
# output 0.132

# input Sample CNc1ccccc1-c1nc2ccccc2n(C)c1=O — what was its z-score?
# output 0.207

# input Sample COc1ccc(Cn2c(=O)c3c(nc(NCCO)n3C)n(C)c2=O)cc1 — what was its z-score?
# output 0.242

# input Sample CS(=O)(=O)CCC(C(=O)n1nnc2ccccc21)N1C(=O)c2ccccc2C1=O (stereo unspecified) — what was its z-score?
# output -1.53

# input Sample N[C@@H](C(=O)N[C@@H]1C(=O)N2C(C(=O)O)=C(Cl)CS[C@H]12)c1ccccc1 — what was its z-score?
# output -0.889

# input Sample CCOC(=O)C1=C(CSc2nc(C)cc(C)c2C#N)OC(N)=C(C#N)C1c1cccs1 (stereo unspecified) — what was its z-score?
# output -0.564

# input Sample CC(C)(C)C1=Nn2c(nnc2-c2ccco2)SC1 — what was its z-score?
# output -0.139

---

- assay_summary: inhibitors of TNFa-induced NFkB p65 translocation, primary screen, imaging, HUVEC, MLSMR starter and 10KST1 sets (AID 438);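 also: compound added about 3h40 before a 20 min TNFalpha stimulation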
- particulars: HUVEC TNFa-induced p65 nuclear translocation; measured here: nuclei count (cytotoxicity indicator), at 2.08 µM
quantity_kind: cell count

compound | cell count
COc1cc(N2C(=O)CSC23C(=O)Nc2ccccc23)cc(OC)c1OC (stereo unspecified) | 512
O=c1oc2cc(O)ccc2c2oc3cc(O)ccc3c12 | 610
N#Cc1c(NC(=O)CCC(=O)O)sc2c1CCCC2 | 715

# input Sample CCOC(=O)C(C#N)C(Cc1ccccc1)c1ccco1 (stereo unspecified) — what was its cell count?
# output 590

# input Sample CCCc1cc(=O)oc2c(CN3CCN(C)CC3)c(O)c(Cl)cc12 — what was its cell count?
# output 332

# input Sample CCCc1cc(C(=O)Cc2ccc(F)cc2)c(O)cc1O — what was its cell count?
# output 563

---

# cell count per entry
- assay_summary: inhibitors of TNFa-induced NFkB p65 translocation, primary screen, imaging, HUVEC, MLSMR starter and 10KST1 sets (AID 438);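 also: compound added about 3h40 before a 20 min TNFalpha stimulation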
- particulars: HUVEC TNFa-induced p65 nuclear translocation; measured here: nuclei count (cytotoxicity indicator), at 2.08 µM
Note: the reply should be a number with no unit written.

compound | experimental_result
CCC(NC(C)C)C(O)c1ccc(O)c2[nH]c(=O)ccc12 (stereo not given) | 682
CC1=CC(c2ccccc2)n2nc(N3C(=O)C4CC=CCC4C3=O)nc2N1 (stereo not given) | 367
COc1ccc(/C(O)=C2/C(=O)C(=O)N(CCN3CCOCC3)C2c2ccccn2)cc1 (stereo not given) | 316
CCN(CC)CCNC(=O)c1ccc(NC(C)=O)cc1 | 497
CCOC(=O)/C(C#N)=C1\Nc2ccccc2N=C1N(CC(C)C)CC(C)C | 586

# input Sample CCCCCC(=O)O[C@]1(C(C)=O)CC[C@H]2[C@@H]3CCC4=CC(=O)CC[C@]4(C)[C@H]3CC[C@@]21C — what was its cell count?
# output 601

# input Sample Cc1ccc(S(=O)(=O)/C(C#N)=C/c2c(N3CCN(C)CC3)nc3c(C)cccn3c2=O)cc1 — what was its cell count?
# output 485

# input Sample CC1CC(C(F)(F)F)n2ncnc2N1 (stereo not given) — what was its cell count?
# output 503

# input Sample CCOC(=O)C1CCN(C(C)=C2C(=O)c3ccccc3C2=O)CC1 — what was its cell count?
# output 476

# input Sample O=C(CNC1=NCCC1)c1ccc2c(c1)OCCO2 — what was its cell count?
# output 488

---

# inhibition per entry
- assay_summary: inhibitors of poly I:C-induced TLR3 signaling, primary screen, cell-based, poly I:C stimulus, luciferase, 10K MLSCN set (AID 602277)
- particulars: HEK293-TLR3 RL24 IRF3 luciferase reporter, at 10 µM, stronger effect = higher value
Reply numerically in %, unit not repeated.

compound | quantity_kind | experimental_result
CC1(C)Cc2c(c(N3CCOCC3)nc3sc(C#N)c(N)c23)CS1 | inhibition | 16.1
Cc1c(O)c(CN2CCCCC2)cc2c3c(c(=O)oc12)CCC3 | inhibition | 14.9
CC1Cc2ccccc2N1NC(=O)c1ccc(Cl)c(S(N)(=O)=O)c1 (centres undefined) | inhibition | -10.9

# input Sample CCOC(=O)c1c(-c2cccs2)csc1NC(=O)CCCC(=O)O — what was its inhibition?
# output 21.7

# input Sample Cn1c(=O)c2c(ncn2CCO)n(C)c1=O — what was its inhibition?
# output 34.5

# input Sample CN(C)CCCN1c2ccccc2CCc2ccc(Cl)cc21 — what was its inhibition?
# output 13.5

# input Sample O=C1NC(c2cccs2)Nc2ccccc21 (centres undefined) — what was its inhibition?
# output 0.34

# input Sample O=C(C1CCN(c2nnc(-n3cccc3)s2)CC1)N1CCc2ccccc2C1 — what was its inhibition?
# output 24.9

# input Sample C=CCn1c(SCC#N)nc2c(c1=O)C(C)(C)Cc1ccccc1-2 — what was its inhibition?
# output 6.72

# input Sample Cc1ncc([N+](=O)[O-])n1CC(O)CCl (centres undefined) — what was its inhibition?
# output 16.6

# input Sample Clc1ccc(-n2ncc3c(NCCCn4ccnc4)ncnc32)cc1 — what was its inhibition?
# output -33.8

# input Sample COCCNc1oc(-c2ccc(C)cc2)nc1C#N — what was its inhibition?
# output -85.8

# input Sample O/N=C/c1ccc(OCC(O)COc2ccc(/C=N/O)cc2)cc1 — what was its inhibition?
# output -9.91

---

- assay_summary: inhibitors of TNFa-induced NFkB p65 translocation, primary screen, imaging, HUVEC, MLSMR starter and 10KST1 sets (AID 438);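 also: compound added about 3h40 before a 20 min TNFalpha stimulation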
- particulars: HUVEC TNFa-induced p65 nuclear translocation; measured here: nuclei count (cytotoxicity indicator), at 2.08 µM
quantity_kind: cell count
Note: the reply should be a number with no unit written.

Sample answers from the record:
compound | experimental_result
CCOC(=O)CSc1nc2sc3c(c2c(=O)[nH]1)CC(C)(C)OC3 | 583
COc1cc([C@@H]2[C@H]3CN(C)CC=C3C(C#N)=C(N)C2(C#N)C#N)cc2c1OCO2 | 394
Cc1cc(=O)oc(C)c1C(=O)NCCNC(=O)c1c(C)cc(=O)oc1C | 496

# input Sample CCCc1[nH]n(-c2nc3ccccc3s2)c(=O)c1C=NCCN1CCOCC1 — what was its cell count?
# output 538

# input Sample CCOc1ccccc1N1CCN(c2nc3ccccc3nc2C(C#N)C(=O)OC)CC1 (configuration not stated) — what was its cell count?
# output 535

# input Sample Cc1ccc(OCc2nnc(NC(=O)c3ccco3)s2)c(C)c1 — what was its cell count?
# output 438

# input Sample C[C@]12CC[C@@H]3c4ccc(OS(=O)(=O)O)cc4CC[C@H]3[C@@H]1CCC2=O — what was its cell count?
# output 725

# input Sample OC(CNCCCN1CCCCC1)COc1ccccc1 (configuration not stated) — what was its cell count?
# output 630

# input Sample Cn1c(=O)c2c(nc(NCc3ccc4c(c3)OCO4)n2Cc2ccccc2F)n(C)c1=O — what was its cell count?
# output 651
